procedure.summary: Everolimus blood pharmacokinetics (24-h profile day 15, trough levels) in Chinese patients with advanced solid tumors
Type: in vivo, human
assay.setup: human, whole blood; oral 5 mg/day, n = 12, day 15, blood; mean (% coefficient of variation); read-out: AUC0-τ

smiles.code	AUC (ng·h/mL)
CO[C@H]1C[C@@H]2CC[C@@H](C)[C@@](O)(O2)C(=O)C(=O)N2CCCC[C@H]2C(=O)O[C@H]([C@H](C)C[C@@H]2CC[C@@H](OCCO)[C@H](OC)C2)CC(=O)[C@H](C)/C=C(\C)[C@@H](O)[C@@H](OC)C(=O)[C@H](C)C[C@H](C)/C=C/C=C/C=C/1C	316
